Target: recombinant human P450 2D6 (Homo sapiens (Human))
Sequence (P10635 whole entry): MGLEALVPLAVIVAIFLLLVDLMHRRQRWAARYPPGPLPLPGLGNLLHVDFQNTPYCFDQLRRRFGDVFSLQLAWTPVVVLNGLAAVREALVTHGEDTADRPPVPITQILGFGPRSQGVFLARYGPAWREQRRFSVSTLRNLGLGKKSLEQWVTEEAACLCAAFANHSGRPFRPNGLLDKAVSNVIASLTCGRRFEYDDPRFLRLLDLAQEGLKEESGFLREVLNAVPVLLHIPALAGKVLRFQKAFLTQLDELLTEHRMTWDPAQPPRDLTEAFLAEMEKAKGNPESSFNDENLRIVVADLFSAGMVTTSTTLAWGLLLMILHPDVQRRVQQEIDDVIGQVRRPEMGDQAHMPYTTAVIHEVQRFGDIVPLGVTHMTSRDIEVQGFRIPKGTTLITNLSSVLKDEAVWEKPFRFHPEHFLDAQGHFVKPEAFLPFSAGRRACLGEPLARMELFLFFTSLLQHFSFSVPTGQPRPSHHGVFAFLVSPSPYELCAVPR
Experiment: Screening for P450 2D6 inhibition (fluorescent AMMC substrate)
Type: in vitro ADME
Settings: recombinant human P450 CYP2D6, AMMC substrate, 30 min
measured-attribute: IC50 (µM)

// below: answered compounds
| compound | unit-tag | IC50 |
| --- | --- | --- |
| C[C@@H](N[C@H]1CCC[C@H](c2ccc(C(=O)NCC(=O)O)cc2)C1)c1cccc2ccccc12 | µM | 13 |
| C[C@@H](NC1CCCC(c2ccc(C(=O)O)cc2)C1)c1cccc2ccccc12 (stereo partly drawn) | µM | 10 |
| C[C@@H](N[C@H]1CCC[C@H](c2ccc(C(=O)N3CCC(C(=O)O)CC3)cc2)C1)c1cccc2ccccc12 | µM | 16 |
| C[C@@H](N[C@H]1CCC[C@H](c2ccc(C(=O)NCCC(=O)O)cc2)C1)c1cccc2ccccc12.Cl [Compound 1136, hydrochloride] | µM | 10 |
| C[C@@H](N[C@H]1CC[C@H](c2ccc(CCC(=O)O)cc2)C1)c1cccc2ccccc12.Cl [Compound 1190, hydrochloride] | µM | 79 |
| C[C@@H](N[C@H]1CCC[C@H](c2ccc(C(=O)N3CC(C(=O)O)C3)cc2)C1)c1cccc2ccccc12 | µM | 25 |
| C[C@@H](NCCCc1cccc(C(F)(F)F)c1)c1cccc2ccccc12 [Cinacalcet, reference compound] | µM | 0.05 |

1. C[C@@H](N[C@H]1CC[C@@H](c2ccc(OCC(=O)O)cc2)C1)c1cccc2ccccc12
2. C[C@@H](NC1CC[C@H](c2ccc(C(=O)O)cc2)C1)c1cccc2ccccc12 (stereo partly drawn)
Q: Between the two listed entries 1 and 2 , which has its IC50 at the higher number? Your answer should be the label of the entry you select.
Ans: 2
(2: 100 µM, 1: 50 µM)
